Numbers sourced from paper PMC11334105.

Molecular target: KRAS^G12C (Homo sapiens, UniProt P01116, G12C)
Assay: LC-MS occupancy measurements (KI and kinact determination)
Assay type: binding
Conditions: 40 μM inhibitor, 5 μM KRASG12C, duplicated experiments
Entries and their kobs
State just the number; it will be interpreted in s⁻¹.

Worked examples follow.
[
  {
    "molecule": "O=C(C1CN1)N1CCN(c2ncnc3cc(-c4c(O)cccc4F)c(Cl)cc23)CC1 (stereo not shown)",
    "kobs [s⁻¹]": 0.0006
  },
  {
    "molecule": "CN1CCCC1COc1nc(N2CCN(C(=O)n3ccnc3)CC2)c2cc(Cl)c(-c3c(O)cccc3F)cc2n1 (stereo not shown)",
    "kobs [s⁻¹]": 0.0006
  },
  {
    "molecule": "O=C(N1CCN(c2ncnc3cc(-c4c(O)cccc4F)c(Cl)cc23)CC1)n1ccnc1",
    "kobs [s⁻¹]": 0.00021
  }
]

# ---- query molecule ----
Exercise: Report measured kobs; entry is CN1CCCC1COc1nc(N2CCN(C(=O)C3CN3)CC2)c2cc(Cl)c(-c3c(O)cccc3F)cc2n1 (stereo not shown)
Key: 0.00044
